target: UniProtKB P21554; assay: cell-based; type: cell-based; details: read-out: CB1 (IC50 ±SD)
Please respond with reported pIC50 for every item in the list.
pIC50 here: minus log base 10 of the concentration, concentration in moles per litre.

# pIC50 lookup, item CC(C)[C@H](N=C(NS(=O)(=O)c1ccc(Cl)cc1)N1C[C@H](c2ccccc2)C(c2ccc(Cl)cc2)=N1)C(N)=O
9.70

Similarly, Cc1c(C(=O)NN2CCS(=O)(=O)CC2)nn(-c2ccc(Cl)cc2Cl)c1-c1ccc(C#CCCC#N)cc1 ?
8.38

Similarly, CCCCCn1cc(C(=O)C2C(C)(C)C2(C)C)c2ccccc21 ?
7.57

Similarly, Cc1c(C(=O)NN2CCOCC2)nn(-c2ccc(Cl)cc2Cl)c1-c1ccc(I)cc1 ?
8.00

====

biological target: human cannabinoid CB2 receptor (Homo sapiens, UniProt P34972); test: cell-based; conditions: 2 nM [3H]-CP55,940, CHO-CB2
Sequence (P34972 whole entry): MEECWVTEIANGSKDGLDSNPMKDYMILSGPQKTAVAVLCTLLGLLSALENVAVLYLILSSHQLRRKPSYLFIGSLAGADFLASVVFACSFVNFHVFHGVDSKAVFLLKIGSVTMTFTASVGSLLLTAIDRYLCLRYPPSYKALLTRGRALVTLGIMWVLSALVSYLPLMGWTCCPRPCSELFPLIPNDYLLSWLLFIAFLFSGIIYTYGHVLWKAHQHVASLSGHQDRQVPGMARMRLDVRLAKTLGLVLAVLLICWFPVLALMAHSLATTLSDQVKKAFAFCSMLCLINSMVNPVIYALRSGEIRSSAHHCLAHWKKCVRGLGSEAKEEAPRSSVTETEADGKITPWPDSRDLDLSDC
quantity.name: inhibition of internalization (CB2) (%)
Give your result in % as a bare value.

# inhibition of internalization (CB2) lookup, item COc1ccc(C(=O)c2c(C)n(CCN3CCOCC3)c3cc(I)ccc23)cc1
51.4

Similarly, Cc1c(C(=O)NN2CCCCC2)nn(-c2ccc(Cl)cc2Cl)c1-c1ccc(Cl)cc1 ?
37.7

Similarly, Cc1c(C(=O)NN2CCS(=O)(=O)CC2)nn(-c2ccc(Cl)cc2Cl)c1-c1ccc(C#CCCC#N)cc1 ?
50.7

Similarly, Cc1c(C(=O)NN2CCOCC2)nn(-c2ccc(Cl)cc2Cl)c1-c1ccc(I)cc1 ?
44.2

Similarly, CCCCCn1cc(C(=O)C2C(C)(C)C2(C)C)c2ccccc21 ?
38.1

====

target: human cannabinoid CB1 receptor (Homo sapiens, UniProt P21554); assay: cell-based; assay type: cell-based; conditions: ratio of the IC50 values CB2/CB1, plate-based assay
Sequence (P21554 whole entry): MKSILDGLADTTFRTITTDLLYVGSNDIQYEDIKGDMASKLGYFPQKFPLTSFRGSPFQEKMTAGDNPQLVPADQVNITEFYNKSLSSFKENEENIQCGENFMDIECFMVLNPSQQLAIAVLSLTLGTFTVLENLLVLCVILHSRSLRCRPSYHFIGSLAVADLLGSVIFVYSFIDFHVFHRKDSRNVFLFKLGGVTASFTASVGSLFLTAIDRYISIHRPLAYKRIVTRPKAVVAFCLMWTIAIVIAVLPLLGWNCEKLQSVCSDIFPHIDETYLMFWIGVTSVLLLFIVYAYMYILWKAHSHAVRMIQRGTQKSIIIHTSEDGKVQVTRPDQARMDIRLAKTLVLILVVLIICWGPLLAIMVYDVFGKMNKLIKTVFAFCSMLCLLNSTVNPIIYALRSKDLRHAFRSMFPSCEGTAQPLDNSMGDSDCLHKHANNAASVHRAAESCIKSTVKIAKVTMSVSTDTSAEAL
Please respond with reported CB2/CB1 for every item in the list.
Give the figure by itself; no unit, no explanation.

Report CB2/CB1 for CCCCCn1cc(C(=O)C23CC4CC(CC(C4)C2)C3)c2ccccc21 tested on human cannabinoid CB1 receptor (Homo sapiens, UniProt P21554).
58

Similarly, Cc1c(C(=O)NN2CCS(=O)(=O)CC2)nn(-c2ccc(Cl)cc2Cl)c1-c1ccc(C#CCCC#N)cc1 ?
309

Similarly, CC(C)[C@H](N=C(NS(=O)(=O)c1ccc(Cl)cc1)N1C[C@H](c2ccccc2)C(c2ccc(Cl)cc2)=N1)C(N)=O ?
810

Similarly, C[C@@]12CC[C@@H]3[C@@](CC[C@H]4[C@@]3(C)CCC[C@@]4(C)C(=O)O)(CC1=O)C2 ?
0.02

Similarly, CCCCCn1cc(C(=O)C2C(C)(C)C2(C)C)c2ccccc21 ?
3

====

target: human cannabinoid CB2 receptor (Homo sapiens, UniProt P34972); test: cell-based; conditions: 2 nM [3H]-CP55,940, CHO-CB2
quantity.name: inhibition of internalization (CB2) (%)
Give your result in % as a bare value.

# inhibition of internalization (CB2) lookup, item CCCCCn1cc(C(=O)C23CC4CC(CC(C4)C2)C3)c2ccccc21
30.3

Similarly, CC(C)[C@H](N=C(NS(=O)(=O)c1ccc(Cl)cc1)N1C[C@H](c2ccccc2)C(c2ccc(Cl)cc2)=N1)C(N)=O ?
52.1

Similarly, Cc1c(C(=O)NN2CCCCC2)nn(-c2ccc(Cl)cc2Cl)c1-c1ccc(I)cc1 ?
60.5

Similarly, C[C@@]12CC[C@@H]3[C@@](CC[C@H]4[C@@]3(C)CCC[C@@]4(C)C(=O)O)(CC1=O)C2 ?
56.8

====

Please respond with reported inhibition of internalization (CB1) for every item in the list.
molecular target: human cannabinoid CB1 receptor (Homo sapiens, UniProt P21554); experiment: cell-based; type: cell-based
Write the figure, then the unit, nothing else.

# inhibition of internalization (CB1) lookup, item CC(C)[C@H](N=C(NS(=O)(=O)c1ccc(Cl)cc1)N1C[C@H](c2ccccc2)C(c2ccc(Cl)cc2)=N1)C(N)=O
64.4%

Similarly, CCCCCn1cc(C(=O)C2C(C)(C)C2(C)C)c2ccccc21 ?
29.6%

Similarly, CCCCCn1cc(C(=O)C23CC4CC(CC(C4)C2)C3)c2ccccc21 ?
32.6%

Similarly, Cc1c(C(=O)NN2CCS(=O)(=O)CC2)nn(-c2ccc(Cl)cc2Cl)c1-c1ccc(C#CCCC#N)cc1 ?
43.7%

Values were extracted from paper PMC3677530.
